target: Prothrombin (Homo sapiens, UniProt P00734); assay: Inhibition of Human Serine Protease Thrombin.
Field: pKi. Provide a value for each of the compounds that follow.
Answers are plain numbers, as −log10 of the molar value.

Please review the following examples before continuing.
>>> observed_value("N=C(N)c1ccc2nc(-c3cc(F)ccc3O)[nH]c2c1")
4.48
>>> observed_value("Cc1ccc(O)c(-c2nc3cc(C(=N)N)ccc3[nH]2)c1")
4.19
>>> observed_value("N=C(N)c1ccc2nc(-c3cc(Br)ccc3O)[nH]c2c1")
4.43
>>> observed_value("N=C(N)c1ccc2[nH]c(-c3cc([N+](=O)[O-])cc(Br)c3O)cc2c1")
6.62
>>> observed_value("N=C(N)c1ccc2[nH]c(-c3cccc(-c4ccccc4)c3)cc2c1")
4.49

Now consider a different compound.
Request: Look at this compound and give its reported pKi. COc1ccc(O)c(-c2nc3ccc(C(=N)N)cc3[nH]2)c1
Result: 4.39

---

target: Serine protease 1 (Homo sapiens); experiment: Inhibition of Human Serine Protease Trypsin.
Sequence (P07477 whole entry): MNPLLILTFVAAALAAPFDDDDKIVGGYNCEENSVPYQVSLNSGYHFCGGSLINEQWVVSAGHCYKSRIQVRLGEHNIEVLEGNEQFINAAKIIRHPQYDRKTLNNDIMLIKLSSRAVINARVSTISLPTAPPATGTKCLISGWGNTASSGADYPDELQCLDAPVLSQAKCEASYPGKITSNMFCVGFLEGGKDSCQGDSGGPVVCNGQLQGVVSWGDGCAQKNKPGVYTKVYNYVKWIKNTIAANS
Field: log10 of Ki. Provide a value for each of the compounds that follow.
Lab note - Ki converted to log10 from values in µM.

Please review the following examples before continuing.
>>> observed_value("N=C(N)c1ccc2nc(-c3cccc([N+](=O)[O-])c3O)[nH]c2c1")
0.93
>>> observed_value("N=C(N)c1ccc2nc(-c3cc(Br)ccc3O)[nH]c2c1")
1.15
>>> observed_value("N=C(N)c1ccc2nc(-c3ccccc3O)[nH]c2c1")
1.36
>>> observed_value("N=C(N)c1ccc2[nH]c(-c3cc([N+](=O)[O-])cc(Br)c3O)cc2c1")
0.63

# batch size: 5; output log10 of Ki per entry
1. COc1cccc(-c2nc3ccc(C(=N)N)cc3[nH]2)c1O
2. Cc1ccc(O)c(-c2nc3cc(C(=N)N)ccc3[nH]2)c1
3. N=C(N)c1ccc2[nH]c(-c3cc([N+](=O)[O-])cc(-c4ccccc4)c3O)cc2c1
4. N=C(N)c1ccc2[nH]c(-c3cccc(-c4ccccc4)c3)cc2c1
5. Cc1cccc(-c2nc3cc(C(=N)N)ccc3[nH]2)c1O

Result:
1: 1.48; 2: 0.95; 3: -1.12; 4: 1.23; 5: 1.18

# batch size: 8; output log10 of Ki per entry
1. Cc1cc(Br)c(O)c(-c2nc3ccc(C(=N)N)cc3[nH]2)c1
2. N=C(N)c1ccc2oc(-c3cccc(-c4ccccc4)c3O)cc2c1
3. Cc1cc(Br)c(O)c(-c2cc3cc(C(=N)N)ccc3[nH]2)c1
4. N=C(N)c1ccc2nc(-c3ccc4ccccc4c3O)[nH]c2c1
5. COc1ccc(O)c(-c2nc3ccc(C(=N)N)cc3[nH]2)c1
6. N=C(N)c1ccc2[nH]c(-c3cccc(F)c3O)nc2c1
7. Cn1c(-c2cccc(-c3ccccc3)c2O)nc2ccc(C(=N)N)cc21
8. Cc1ccc(-c2nc3ccc(C(=N)N)cc3[nH]2)c(O)c1

Result:
[0.52, 0.20, -0.49, 1.26, 0.81, 0.54, 0.81, 1.26]

# batch size: 2; output log10 of Ki per entry
1. CCN(CC)c1ccc(-c2nc3cc(C(=N)N)ccc3[nH]2)c(O)c1
2. N=C(N)c1ccc2[nH]c(-c3cccc(Br)c3O)nc2c1

Result:
1. 1.20
2. 0.15
